Reference source: patent US20110097326A1

Target: T1, recombinant Fc-TrkB antigen (human) (human, UniProt Q16620 32-430, limits assumed)
T1 construct: Biotinylated for the ForteBio assays; also called Fc-hTrkB; human Fc-TrkB; not shown: Fc part
Experiment: SPR (Biacore S51), Fc-hTrkB amine-coupled to CM-5 chip, IgG in flow, global 1:1 Langmuir fit
ASSAY METRIC: kon

The binder listed as NVP-LFD254 (antibody, human IgG1, V domains shown, IgG with human IgG1 constant region and human kappa constant region, from transiently transfected CHO cells; also called TR143 Vh & TR119 Vk) VH: QVQLVQSGAEVKKPGASVKVSCKASGYTFTAYDMHWVRQAPGQGLEWMGWIDPRSGDTSYKQKFQGRVTMTRDTSISTAYMELHRLRSDDTAVYYCTGVTTWFAYWGQGTLVTVSS VL: DIVMTQTPLSLPVTLGQPASISCRSSQSLLHSNGNTYLNWYQQTPGQPPRLLIYKISNRFSGVPDRFSGSGAGTDFTLKISRVEAEDVGVYYCMQGTHVPYTFGQGKLEIK shows kon equal to 166000 M⁻¹ s⁻¹
